# collection of IC50 values tested on HCV NS3-NS4A protease 3a (Hepatitis C virus genotype 3a)
# Sequence (Q81258 1664-1717): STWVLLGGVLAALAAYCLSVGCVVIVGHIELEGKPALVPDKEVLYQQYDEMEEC
# Sequence (Q81258 1033-1214): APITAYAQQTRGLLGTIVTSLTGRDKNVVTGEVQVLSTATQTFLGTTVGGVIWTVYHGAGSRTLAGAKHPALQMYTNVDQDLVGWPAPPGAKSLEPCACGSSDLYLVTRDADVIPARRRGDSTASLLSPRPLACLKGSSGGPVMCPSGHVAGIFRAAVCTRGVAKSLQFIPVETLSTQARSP
observable: IC50

* CN1CCCC/C=C\[C@@H]2C[C@@]2(C(=O)NS(=O)(=O)C2(C)CC2)NC(=O)[C@@H]2C[C@@H](Oc3cc(-c4nc(C(F)(F)F)cs4)nc(-c4nc(C(F)(F)F)cs4)n3)CC[C@H]2C1=O | 0.01 to 0.1 µM
* Cc1csc(-c2cc(O[C@H]3CC[C@H]4C(=O)N(C)CCCC/C=C\[C@@H]5C[C@@]5(C(=O)NS(=O)(=O)C5(C)CC5)NC(=O)[C@@H]4C3)cc(-c3nc(C(F)(F)F)cs3)n2)n1 | < 0.01 µM
* CN1CCCC/C=C\[C@@H]2C[C@@]2(C(=O)NS(=O)(=O)C2(C)CC2)NC(=O)[C@@H]2C[C@@H](Oc3nc(-c4cccc(C(F)(F)F)c4)sc3-c3ccccc3)CC[C@H]2C1=O | 0.01 to 0.1 µM
* Cc1csc(-c2cc(O[C@H]3CC[C@H]4C(=O)N(C)CCCC/C=C\[C@@H]5C[C@@]5(C(=O)NS(=O)(=O)C5(C)CC5)NC(=O)[C@@H]4C3)nc(-c3nc(C(F)(F)F)cs3)n2)n1 | < 0.01 µM
* C#Cc1csc(-c2cc(O[C@H]3CC[C@H]4C(=O)N(C)CCCC/C=C\[C@@H]5C[C@@]5(C(=O)NS(=O)(=O)C5(C)CC5)NC(=O)[C@@H]4C3)c3ccc(OC)c(C)c3n2)n1 [Compound 17a, reference compound] | 0.01 to 0.1 µM
* COc1ccc2c(O[C@H]3CC[C@H]4C(=O)N(C)CCCC/C=C\[C@@H]5C[C@@]5(C(=O)NS(=O)(=O)C5(C)CC5)NC(=O)[C@@H]4C3)cc(-c3nc(C(C)C)cs3)nc2c1C | 0.1 to 1 µM
* COc1ccc2c(O[C@H]3CC[C@H]4C(=O)N(C)CCCC/C=C\[C@@H]5C[C@@]5(C(=O)NS(=O)(=O)C5(C)CC5)NC(=O)[C@@H]4C3)cc(-c3nc(C(F)(F)F)cs3)nc2c1C [Compound 17b, reference compound] | 0.1 to 1 µM
* CC(C)c1csc(-c2cc(O[C@H]3CC[C@H]4C(=O)N(C)CCCC/C=C\[C@@H]5C[C@@]5(C(=O)NS(=O)(=O)C5(C)CC5)NC(=O)[C@@H]4C3)nc(-c3nc(C(F)(F)F)cs3)n2)n1 | < 0.01 µM

* * *

test-system: UniProt:P27958
Sequence (P27958 1027-1208): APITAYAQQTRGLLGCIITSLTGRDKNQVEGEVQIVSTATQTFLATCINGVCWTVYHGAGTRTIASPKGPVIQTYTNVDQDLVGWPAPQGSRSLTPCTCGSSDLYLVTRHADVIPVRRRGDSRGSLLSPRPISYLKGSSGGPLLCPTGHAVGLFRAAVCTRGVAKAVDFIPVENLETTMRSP
Sequence (P27958 1658-1711): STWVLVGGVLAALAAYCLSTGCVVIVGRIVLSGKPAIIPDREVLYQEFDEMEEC
pIC50: −log10 of the molar value.
observable: pIC50

• COc1ccc2c(O[C@H]3CC[C@H]4C(=O)N(C)CCCC/C=C\[C@@H]5C[C@@]5(C(=O)NS(=O)(=O)C5(C)CC5)NC(=O)[C@@H]4C3)cc(-c3nc(C(F)(F)F)cs3)nc2c1C [Compound 17b, reference compound] = > 8.00
• C#Cc1csc(-c2cc(O[C@H]3CC[C@H]4C(=O)N(C)CCCC/C=C\[C@@H]5C[C@@]5(C(=O)NS(=O)(=O)C5(C)CC5)NC(=O)[C@@H]4C3)c3ccc(OC)c(C)c3n2)n1 [Compound 17a, reference compound] = > 8.00
• COc1ccc2c(O[C@H]3CC[C@H]4C(=O)N(C)CCCC/C=C\[C@@H]5C[C@@]5(C(=O)NS(=O)(=O)C5(C)CC5)NC(=O)[C@@H]4C3)cc(-c3nc(C(C)C)cs3)nc2c1C = > 8.00
• Cc1csc(-c2cc(O[C@H]3CC[C@H]4C(=O)N(C)CCCC/C=C\[C@@H]5C[C@@]5(C(=O)NS(=O)(=O)C5(C)CC5)NC(=O)[C@@H]4C3)nc(-c3nc(C(F)(F)F)cs3)n2)n1 = > 8.00

* * *

pIC50: −log10 of the molar value.
# collection of pIC50 values tested on HCV NS3-NS4A protease 2a (Hepatitis C virus genotype 2a)
# Sequence (Q99IB8 1662-1715): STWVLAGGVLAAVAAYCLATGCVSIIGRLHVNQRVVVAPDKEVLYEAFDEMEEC
# Sequence (Q99IB8 1031-1212): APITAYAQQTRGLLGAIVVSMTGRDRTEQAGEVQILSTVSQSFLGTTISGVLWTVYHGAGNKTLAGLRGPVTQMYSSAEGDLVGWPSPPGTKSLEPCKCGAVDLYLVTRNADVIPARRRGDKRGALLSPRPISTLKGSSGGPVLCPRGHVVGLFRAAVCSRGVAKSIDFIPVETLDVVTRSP
observable: pIC50

• COc1ccc2c(O[C@H]3CC[C@H]4C(=O)N(C)CCCC/C=C\[C@@H]5C[C@@]5(C(=O)NS(=O)(=O)C5(C)CC5)NC(=O)[C@@H]4C3)cc(-c3nc(C(F)(F)F)cs3)nc2c1C [Compound 17b, reference compound] = > 8.00
• C#Cc1csc(-c2cc(O[C@H]3CC[C@H]4C(=O)N(C)CCCC/C=C\[C@@H]5C[C@@]5(C(=O)NS(=O)(=O)C5(C)CC5)NC(=O)[C@@H]4C3)c3ccc(OC)c(C)c3n2)n1 [Compound 17a, reference compound] = > 8.00
• COc1ccc2c(O[C@H]3CC[C@H]4C(=O)N(C)CCCC/C=C\[C@@H]5C[C@@]5(C(=O)NS(=O)(=O)C5(C)CC5)NC(=O)[C@@H]4C3)cc(-c3nc(C(C)C)cs3)nc2c1C = 7.00 to 8.00
• Cc1csc(-c2cc(O[C@H]3CC[C@H]4C(=O)N(C)CCCC/C=C\[C@@H]5C[C@@]5(C(=O)NS(=O)(=O)C5(C)CC5)NC(=O)[C@@H]4C3)nc(-c3nc(C(F)(F)F)cs3)n2)n1 = > 8.00

* * *

Some compounds, each annotated with its measured pIC50.
test-system: HCV NS3-NS4A protease 5a (Hepatitis C virus genotype 5a)
Sequence (O39928 1659-1712): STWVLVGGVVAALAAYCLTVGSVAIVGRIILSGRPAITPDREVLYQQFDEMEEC
Sequence (O39928 1028-1209): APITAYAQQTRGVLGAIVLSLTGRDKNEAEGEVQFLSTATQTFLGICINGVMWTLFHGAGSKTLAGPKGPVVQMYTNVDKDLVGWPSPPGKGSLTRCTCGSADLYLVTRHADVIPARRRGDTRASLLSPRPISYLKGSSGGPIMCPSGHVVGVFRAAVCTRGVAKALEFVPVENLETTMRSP
pIC50: −log10 of the molar value.
observable: pIC50

* COc1ccc2c(O[C@H]3CC[C@H]4C(=O)N(C)CCCC/C=C\[C@@H]5C[C@@]5(C(=O)NS(=O)(=O)C5(C)CC5)NC(=O)[C@@H]4C3)cc(-c3nc(C(F)(F)F)cs3)nc2c1C [Compound 17b, reference compound] | > 8.00
* C#Cc1csc(-c2cc(O[C@H]3CC[C@H]4C(=O)N(C)CCCC/C=C\[C@@H]5C[C@@]5(C(=O)NS(=O)(=O)C5(C)CC5)NC(=O)[C@@H]4C3)c3ccc(OC)c(C)c3n2)n1 [Compound 17a, reference compound] | > 8.00
* Cc1csc(-c2cc(O[C@H]3CC[C@H]4C(=O)N(C)CCCC/C=C\[C@@H]5C[C@@]5(C(=O)NS(=O)(=O)C5(C)CC5)NC(=O)[C@@H]4C3)nc(-c3nc(C(F)(F)F)cs3)n2)n1 | > 8.00
* COc1ccc2c(O[C@H]3CC[C@H]4C(=O)N(C)CCCC/C=C\[C@@H]5C[C@@]5(C(=O)NS(=O)(=O)C5(C)CC5)NC(=O)[C@@H]4C3)cc(-c3nc(C(C)C)cs3)nc2c1C | 7.00 to 8.00

Hey, just so you know, these numbers are from patent US9353100B2.
